Consider molecules characterized by their IC50 with UniProt P15145.
assay metric: IC50 (µM)

CSCC[C@H](NC(=O)NCc1ccccc1)C(=O)NO
3.8
CC(C)C[C@H](NC(=O)OCc1ccccc1)C(=O)NO
9.1
C[C@H](NC(=O)NCc1ccccc1)C(=O)NO
21

(I) CC(C)C[C@H](NC(=O)OCCc1ccccc1)C(=O)NO
(II) O=C(CNC(=O)NCc1ccccc1)NO
Out of I and II , name the one with the higher IC50. Answer format: the label of the selected item.
II

====

Consider compounds characterized by their IC50 with Aminopeptidase N (Sus scrofa).
Sequence (P15145 whole entry): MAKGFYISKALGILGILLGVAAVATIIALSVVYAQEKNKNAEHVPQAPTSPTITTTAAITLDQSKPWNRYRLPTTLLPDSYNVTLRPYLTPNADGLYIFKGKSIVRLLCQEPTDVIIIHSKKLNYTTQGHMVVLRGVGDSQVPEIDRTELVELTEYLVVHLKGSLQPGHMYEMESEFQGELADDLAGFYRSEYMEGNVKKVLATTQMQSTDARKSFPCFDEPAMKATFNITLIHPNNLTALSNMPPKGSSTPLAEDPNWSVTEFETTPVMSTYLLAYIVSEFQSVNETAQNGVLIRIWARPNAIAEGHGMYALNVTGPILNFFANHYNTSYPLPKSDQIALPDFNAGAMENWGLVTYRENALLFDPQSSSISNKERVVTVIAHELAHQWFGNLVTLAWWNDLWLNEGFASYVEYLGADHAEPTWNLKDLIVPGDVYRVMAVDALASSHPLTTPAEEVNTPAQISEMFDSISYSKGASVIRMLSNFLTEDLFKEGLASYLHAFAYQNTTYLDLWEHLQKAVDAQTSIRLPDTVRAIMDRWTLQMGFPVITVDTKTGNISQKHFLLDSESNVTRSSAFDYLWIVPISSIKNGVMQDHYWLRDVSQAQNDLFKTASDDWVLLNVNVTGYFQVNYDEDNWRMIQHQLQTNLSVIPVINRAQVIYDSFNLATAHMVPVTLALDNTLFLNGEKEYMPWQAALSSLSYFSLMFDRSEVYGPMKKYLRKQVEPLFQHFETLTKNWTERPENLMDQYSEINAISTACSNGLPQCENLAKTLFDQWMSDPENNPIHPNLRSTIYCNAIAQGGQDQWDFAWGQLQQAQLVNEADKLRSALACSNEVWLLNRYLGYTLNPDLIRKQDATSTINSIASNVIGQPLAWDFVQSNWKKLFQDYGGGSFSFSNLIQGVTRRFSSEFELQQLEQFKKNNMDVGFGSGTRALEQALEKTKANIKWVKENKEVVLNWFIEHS

Solved cases below.
CC(C)[C@H](NC(=O)NCc1ccccc1)C(=O)NO
17 µM
CC[C@H](C)[C@H](NC(=O)NCCc1ccccc1)C(=O)NO
> 100 µM
O=C(N[C@@H](Cc1ccccc1)C(=O)NO)N[C@@H](Cc1ccccc1)C(=O)NO
> 100 µM

CC(C)(C)NC(=O)N[C@@H](Cc1ccccc1)C(=O)NO on Aminopeptidase N (Sus scrofa) gives IC50 = > 100 µM

CC(C)(C)NC(=O)NCC(=O)NO on Aminopeptidase N (Sus scrofa) gives IC50 = > 100 µM

Origin of measurements: ChEMBL document CHEMBL2034854
